Reported pIC50 values for the following compounds.
# Tested on: Human tumor cell lines (e.g., MCF7, U-87 MG, MDA-MB-468, PC-3)
# MEASUREMENT_DESCRIPTION: Tumor cell line proliferation assay (Alamar Blue)
# Assay type: cell-based
# EXPERIMENTAL_CONDITIONS: PC3 cells, read-out: PC3 proliferation IC50
pIC50: −log10 of the molar value.

Give a short answer stating reported pIC50 for CC(=O)Nc1nc2ccc(-c3ccc4oc(N)nc4c3)cc2s1 . > 5.00

Now for another entry.
Write down pIC50 measured for item CC(=O)Nc1cn2cc(-c3ccc4oc(N)nc4c3)ccc2n1 > 7.00

---

Each item that follows carries a reported pIC50.
# TARGET_SYSTEM: p110δ/p85α (Homo sapiens (Human), UniProt O00329)
# Sequence (O00329 whole entry, one chain of several): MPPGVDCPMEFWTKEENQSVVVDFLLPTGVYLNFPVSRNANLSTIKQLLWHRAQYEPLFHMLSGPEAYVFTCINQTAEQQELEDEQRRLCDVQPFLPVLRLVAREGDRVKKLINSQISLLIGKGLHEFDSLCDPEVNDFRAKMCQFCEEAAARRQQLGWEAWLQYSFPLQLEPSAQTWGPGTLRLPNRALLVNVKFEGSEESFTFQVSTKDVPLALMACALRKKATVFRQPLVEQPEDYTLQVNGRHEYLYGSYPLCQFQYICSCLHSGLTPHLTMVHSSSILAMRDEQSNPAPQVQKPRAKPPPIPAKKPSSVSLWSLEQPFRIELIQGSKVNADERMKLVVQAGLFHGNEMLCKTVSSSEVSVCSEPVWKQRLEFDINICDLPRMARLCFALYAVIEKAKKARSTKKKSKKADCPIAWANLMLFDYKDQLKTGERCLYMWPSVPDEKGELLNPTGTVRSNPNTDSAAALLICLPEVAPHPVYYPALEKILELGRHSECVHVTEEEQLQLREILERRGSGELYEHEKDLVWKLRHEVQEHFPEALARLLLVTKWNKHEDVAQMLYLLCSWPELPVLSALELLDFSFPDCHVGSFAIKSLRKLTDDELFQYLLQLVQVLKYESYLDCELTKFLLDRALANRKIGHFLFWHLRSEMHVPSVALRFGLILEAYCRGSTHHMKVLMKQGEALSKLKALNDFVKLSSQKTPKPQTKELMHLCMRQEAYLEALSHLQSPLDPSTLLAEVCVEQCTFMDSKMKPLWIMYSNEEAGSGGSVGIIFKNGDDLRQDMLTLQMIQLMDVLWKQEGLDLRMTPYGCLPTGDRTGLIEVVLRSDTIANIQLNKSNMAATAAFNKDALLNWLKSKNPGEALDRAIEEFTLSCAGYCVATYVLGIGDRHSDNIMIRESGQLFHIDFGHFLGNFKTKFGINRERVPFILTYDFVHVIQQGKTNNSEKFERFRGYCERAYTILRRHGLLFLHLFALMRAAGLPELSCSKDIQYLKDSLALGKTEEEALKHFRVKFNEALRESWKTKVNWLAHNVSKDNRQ
# MEASUREMENT_DESCRIPTION: PI 3-Kinase (human) HTRF assay, p110δ/p85α
# Format: biochemical
# EXPERIMENTAL_CONDITIONS: in vitro; read-out: PI3K δ IC50
pIC50: −log10 of the molar value.

Consider the reported pIC50 for these compounds:
Return pIC50 for the following compound: Nc1nc2cc(-c3ccc4ncc(N5CC(N)C5)nc4c3)ccc2o1 > 5.00

# return recorded pIC50 for entry Nc1nc2cc(-c3ccc4ncc(C(=O)N5CC(N6CCOCC6)C5)n4c3)ccc2o1 > 6.00

Fill in reported pIC50 for this entry: Nc1nc2cc(-c3ccc4ncc(N5CC(C(=O)N6CCOCC6)C5)nc4c3)ccc2o1 > 5.00

Here is another compound to look at.
In one line, give reported pIC50 of the entry Nc1nc2cc(-c3ccc4ncc(N5CCNC(C(F)(F)F)C5)nc4c3)ccc2o1 (stereo not shown) . > 5.00

---

IC50 reference
# TARGET_SYSTEM: p110β/p85α (Homo sapiens (Human))
# Sequence (P42338 whole entry): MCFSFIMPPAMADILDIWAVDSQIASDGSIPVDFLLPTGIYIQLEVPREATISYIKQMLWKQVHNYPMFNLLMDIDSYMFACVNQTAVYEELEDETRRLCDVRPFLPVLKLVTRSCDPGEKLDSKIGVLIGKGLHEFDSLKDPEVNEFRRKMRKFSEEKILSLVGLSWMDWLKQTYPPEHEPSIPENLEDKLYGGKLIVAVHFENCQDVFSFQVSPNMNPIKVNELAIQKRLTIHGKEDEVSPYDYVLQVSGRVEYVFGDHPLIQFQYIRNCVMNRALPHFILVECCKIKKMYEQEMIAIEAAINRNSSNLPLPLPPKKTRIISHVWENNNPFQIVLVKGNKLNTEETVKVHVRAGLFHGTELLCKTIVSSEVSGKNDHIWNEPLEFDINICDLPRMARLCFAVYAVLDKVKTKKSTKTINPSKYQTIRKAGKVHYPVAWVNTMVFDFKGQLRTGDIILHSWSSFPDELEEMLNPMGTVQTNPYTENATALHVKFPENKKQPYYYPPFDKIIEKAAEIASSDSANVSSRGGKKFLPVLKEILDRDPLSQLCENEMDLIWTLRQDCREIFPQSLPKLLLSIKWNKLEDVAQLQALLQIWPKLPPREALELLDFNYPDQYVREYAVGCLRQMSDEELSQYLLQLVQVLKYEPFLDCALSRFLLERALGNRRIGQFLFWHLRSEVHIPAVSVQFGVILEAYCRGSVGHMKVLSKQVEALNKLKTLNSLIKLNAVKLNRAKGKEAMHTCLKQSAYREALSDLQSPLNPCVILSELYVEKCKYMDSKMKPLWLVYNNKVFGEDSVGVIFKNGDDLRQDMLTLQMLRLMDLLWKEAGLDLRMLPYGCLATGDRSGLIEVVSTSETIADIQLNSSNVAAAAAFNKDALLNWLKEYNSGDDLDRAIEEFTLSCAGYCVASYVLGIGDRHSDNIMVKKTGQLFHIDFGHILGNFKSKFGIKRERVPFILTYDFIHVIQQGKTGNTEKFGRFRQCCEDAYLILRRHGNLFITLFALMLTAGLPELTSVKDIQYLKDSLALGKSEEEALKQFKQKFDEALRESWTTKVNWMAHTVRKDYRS
# Sequence (P27986 whole entry partner): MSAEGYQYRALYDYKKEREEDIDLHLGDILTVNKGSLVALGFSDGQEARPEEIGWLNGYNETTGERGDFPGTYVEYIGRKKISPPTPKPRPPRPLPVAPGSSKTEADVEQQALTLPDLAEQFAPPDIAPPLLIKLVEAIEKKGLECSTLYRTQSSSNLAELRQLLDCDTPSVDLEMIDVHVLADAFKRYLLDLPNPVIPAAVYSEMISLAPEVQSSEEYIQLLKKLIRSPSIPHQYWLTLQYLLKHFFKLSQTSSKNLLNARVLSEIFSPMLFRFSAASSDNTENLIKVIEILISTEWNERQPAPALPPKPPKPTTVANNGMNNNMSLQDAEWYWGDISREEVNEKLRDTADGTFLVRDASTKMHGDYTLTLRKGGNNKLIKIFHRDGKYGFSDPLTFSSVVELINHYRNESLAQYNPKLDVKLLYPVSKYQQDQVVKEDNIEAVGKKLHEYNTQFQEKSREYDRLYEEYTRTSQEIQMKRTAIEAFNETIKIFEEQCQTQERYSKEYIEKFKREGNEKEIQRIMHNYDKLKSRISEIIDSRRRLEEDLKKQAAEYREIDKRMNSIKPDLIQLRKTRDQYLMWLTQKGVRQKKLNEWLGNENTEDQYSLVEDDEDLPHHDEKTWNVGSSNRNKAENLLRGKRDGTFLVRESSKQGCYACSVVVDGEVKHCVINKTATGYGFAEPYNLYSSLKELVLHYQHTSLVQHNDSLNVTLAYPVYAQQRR
# MEASUREMENT_DESCRIPTION: PI 3-Kinase (human) HTRF assay, p110β/p85α
# Assay type: biochemical
# EXPERIMENTAL_CONDITIONS: read-out: PI3K β In Vitro IC50

Hello, please tell me recorded IC50 for this one: Nc1nc2cc(-c3ccc4ncc(C(=O)N5CC(N6CC[C@@H](O)C6)C5)n4c3)ccc2o1 [compound 470] < 10 µM

Give the value of IC50 reported for the following: Nc1nc2cc(-c3ccc4sc(N)nc4c3)cc(F)c2o1 [compound 437] < 1 µM

Indicate the recorded IC50 value for this compound: CC(=O)Nc1nc2cc(-c3cc(F)c4oc(N)nc4c3)ccc2s1 [compound 435] < 10 µM

Let me know recorded IC50 for Nc1nc2cc(-c3ccc4ncc(C(=O)N5CC(F)C5)n4c3)ccc2o1 [compound 468] , thanks. < 10 µM

Please supply the value of reported IC50 for the item COc1ncc(-c2ccc3ncc(C(=O)N4CCOCC4)n3c2)cc1NS(C)(=O)=O [compound 416] < 10 µM

Name the recorded IC50 of the item Nc1nc2ccc(-c3cc(F)c4oc(N)nc4c3)cc2o1 [compound 433] in your answer. < 1 µM

Next compound, IC50 to be filled in.
For the compound Nc1nc2cc(-c3ccc4ncc(C(=O)N5CCOCC5)n4c3)cnc2o1 [compound 400] , give its reported IC50. < 10 µM

---

# TARGET_SYSTEM: p110β/p85α (Homo sapiens (Human))
# MEASUREMENT_DESCRIPTION: PI 3-Kinase (human) HTRF assay, p110β/p85α
# Format: biochemical
# EXPERIMENTAL_CONDITIONS: read-out: PI3K β IC50
MEASURED_ENDPOINT: IC50

For p110β/p85α (Homo sapiens (Human)), give IC50 of the listed compound: CN1CCC(N(C)C(=O)c2cnc3ccc(-c4ccc5oc(N)nc5c4)cn23)CC1 < 10000 nM

# lookup: p110β/p85α (Homo sapiens (Human)) IC50, key = CC(C)N1CCN(C(=O)c2cnc3ccc(-c4ccc5oc(N)nc5c4)cn23)CC1 < 10000 nM

Write down measured IC50 (p110β/p85α (Homo sapiens (Human))) for this compound. CS(=O)(=O)N1CCC(Nc2ncnc3ccc(-c4ccc5oc(N)nc5c4)cc23)CC1 < 1000 nM

State, for p110β/p85α (Homo sapiens (Human)), measured IC50 of the compound listed here: CN1CCC(N(C)c2cnc3ccc(-c4ccc5oc(N)nc5c4)cc3n2)CC1 < 10000 nM

Report the value of IC50 obtained on p110β/p85α (Homo sapiens (Human)) for CN(C)CC(=O)N1CCC(Nc2ncnc3ccc(-c4ccc5oc(N)nc5c4)cc23)CC1 . < 1000 nM

Provide IC50, tested on p110β/p85α (Homo sapiens (Human)), for CN1CCC(N(C)c2ncnc3ccc(-c4ccc5oc(N)nc5c4)cc23)CC1 . < 100 nM

Given CCN1CCN(c2cnc3ccc(-c4ccc5oc(N)nc5c4)cc3n2)CC1 , report its IC50 on p110β/p85α (Homo sapiens (Human)). < 100 nM

Lab note: p110β/p85α (Homo sapiens (Human)) assay, enter IC50 for CN1CCN(c2cnc3ccc(-c4ccc5oc(N)nc5c4)cc3n2)CC1 here < 100 nM

Provide IC50, recorded with p110β/p85α (Homo sapiens (Human)), of CC(=O)N1CCC(Nc2cnc3ccc(-c4ccc5oc(N)nc5c4)cc3n2)CC1 < 10000 nM

Fill: IC50 (p110β/p85α (Homo sapiens (Human))) for this compound Nc1nc2cc(-c3ccc4ncc(N5CCOCC5)nc4c3)ccc2o1 < 1000 nM

Here is the next item to consider.
Report its IC50 with p110β/p85α (Homo sapiens (Human)) as the test system: Nc1nc2cc(-c3ccc4ncc(N5CCC(N)CC5)nc4c3)ccc2o1 < 1000 nM
